Quick reference: z-score of the listed items.
Experiment: qHTS for identification of novel therapeutic agents for treatment of microphthalmiaassociated transcription factor (MiT) renal cell carcinoma (RCC) (AID 1963991);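 further: curves scaled with 100% = DMSO viability and 0% = empty wells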
Conditions: TFE3-RCC viability, CellTiter-Glo, 48 h; measured here: UOK145 Z-AUC; stronger effect = lower value
Experimental: PI: Marston Linehan Ph.D. Urologic Oncology Branch, Center for Cancer Research (CCR) National Cancer Institute (NCI), National Institute of Health (NIH), Bethesda, Maryland […] 6; Detection; Luminescence; ViewLux plate reader (PerkinElmer). […] 1. Quantitative high-throughput screening (qHTS) of 1912 pharmacologically defined small molecule compounds was conducted on three TFE3-fusion cell lines bearing three different fusion partners (UOK109, UOK124, UOK145). […]
Inconclusive results are not listed.
// no unit, no text: just the number

Which z-score reading was recorded for the molecule CC=C1C2C=C(C)CC1(N)c1ccc(=O)[nH]c1C2 (stereo not drawn) ?
1.2

Entry under review: C[C@@H]1O[C@@H](O[C@H]2CC[C@@]3(C)[C@H](CC[C@@H]4[C@H]3C[C@@H](O)[C@]3(C)[C@@H](C5=CC(=O)OC5)CC[C@]43O)C2)C[C@H](O)[C@@H]1O[C@H]1C[C@H](O)[C@H](O[C@H]2C[C@H](O)[C@@H](O)[C@@H](C)O2)[C@H](C)O1 (stereo in doubt) . Reported z-score?
-0.987

Which value of z-score has been reported for CCNC(=O)CCCC=CC[C@@H]1[C@H](C=CC(O)CCc2ccccc2)[C@@H](O)C[C@@H]1O (stereo partly drawn) in the records?
1.41

---

Test: Quantitative High-Throughput drug screen in 47 multiple myeloma cell lines against the NCATS MIPE library collection: KMM1_JCRB cell viability assay (AID 1918960); further: nearly all actives have a fitted effect of over 30% in size; further: potency means the concentration at half of the fitted maximal effect
Details: KMM1 myeloma viability, CellTiter-Glo ATP luminescence, 48 h; series mostly up to 45.8 µM
Records with an inconclusive call do not appear. The source made the active and inactive calls. The call rests on the fitted dose curve; in most records, active means well fitted cell-killing curve with a large enough effect; inconclusive means small, poorly fitted or top-dose-only effect, or effect the other way; inactive means no such curve, though single readings can be large or run the other way.
testReadout: Potency

- molecule: "CC[C@H](C)n1cc(C)c2c(C(=O)NCc3c(C)cc(C)[nH]c3=O)cc(-c3ccc(N4CCNCC4)nc3)cc21"
  observedMeasurement: "inactive"
- molecule: "O=C(C=Cc1ccc(O)cc1)c1ccc(O)cc1O"
  observedMeasurement: "16.6 µM (active)"
- molecule: "COc1cccc(OC)c1-c1cc(C(=O)NC2(C(=O)O)C3CC4CC(C3)CC2C4)nn1-c1ccnc2cc(Cl)ccc12 (stereo not given)"
  observedMeasurement: "inactive"
- molecule: "C=CCc1cccc(C=NNC(=O)CN2CCN(Cc3ccccc3)CC2)c1O"
  observedMeasurement: "5.26 µM (active)"
- molecule: "CN1C(=O)C(Cc2c[nH]c3ccccc23)NC1=S (stereo not given)"
  observedMeasurement: "inactive"

What value of Potency has been reported for the following molecule? Cc1csc(-c2nnc(Nc3ccc(Oc4ncccc4-c4ccnc(N)n4)cc3)c3ccccc23)c1
14.8 µM (active)

Would you mind telling me what Potency value was observed for CN1CCN(c2cccc(Nc3nc4c(-c5ccc(S(C)(=O)=O)cc5)cccn4n3)c2)CC1 ?
1.66 µM (active)

---

Assay: Quantitative High-Throughput drug screen in 47 multiple myeloma cell lines against the NCATS MIPE library collection: Karpas25_ECACC cell viability assay (AID 1918968; further: nearly all actives have a fitted effect of over 35% in size)
Settings: Karpas25 myeloma viability, CellTiter-Glo ATP, 48 h; series mostly up to 45.8 µM
Source text: PI: Beverly A. Mock Ph.D. Laboratory of Cancer Biology and Genetics, Center for Cancer Research, National Cancer Institute, National Institute of Health, Bethesda, Maryland […] 5; Detector; 425V; Luminescence; Viewlux PerkinElmer. […] 1. […] Briefly, the corresponding myeloma cell lines were screened in 1,536-well plates with 500 cells, 5-uL per well for inhibition of cell viability (assessed by measuring ATP levels with CellTiterGlo). […]
Inconclusive results are not listed. Activity calls are given as the source filed them. Calls follow the shape of the dose curve; as a rule, active = well fitted cell-killing curve with a large enough effect; inconclusive = small, poorly fitted or top-dose-only effect, or effect the other way; inactive = no such curve, though single readings can be large or run the other way.
Use one of these outcomes when replying: true (active), false (inactive)

Solved entries:
- compound: "CCCC1OC2C[C@@H]3[C@H]4CCC5=CC(=O)C=C[C@]5(C)[C@H]4C(O)C[C@]3(C)[C@]2(C(=O)CO)O1 (some centres not stated)"
  classAssignment: "true"
- compound: "CC(=O)N1CCN(c2ccc(OCc3nn(C)c(C)c3-c3cccc4c(CCCOc5cc(C)c(Cl)c(C)c5)c(C(=O)O)n(Cc5cccnc5)c34)cc2)CC1"
  classAssignment: "true"
- compound: "CNC(=O)c1cc(Oc2ccc(NC(=O)Nc3ccc(Cl)c(C(F)(F)F)c3)c(F)c2)ccn1"
  classAssignment: "true"
- compound: "COc1ccc2c(c1)CC[C@H]1[C@@H]2CC[C@]2(C)[C@@H](NCCCCCCN3C(=O)C=CC3=O)CC[C@H]12"
  classAssignment: "false"

Lab log entry: CN1CCc2c(n(Cc3ccc(C(=O)NO)cc3)c3ccccc23)C1 — outcome as called in the assay?
true

Recorded test outcome, item CCNC(=O)CCCC=CC[C@@H]1[C@H](C=CC(O)CCc2ccccc2)[C@@H](O)C[C@@H]1O (some centres not stated)
false

What was the test verdict on Cc1ccc(NC(=O)Nc2cc(C(F)(F)F)ccc2F)cc1Nc1ccc2c(c1)NC(=O)C2=Cc1ccc[nH]1 ?
true

Recorded test call requested for Cc1nc(NC(=O)N2CCC[C@@H]2C(N)=O)sc1-c1csc(C(C)(C)C)n1
true

Per the assay record, what outcome was assigned to COc1ccc(C=CC(=O)Nc2ccccc2C(=O)O)cc1OC ?
false

// param item: CCC=CC[C@H]1C(=O)CC[C@@H]1CC(=O)OC ; yields the recorded call
false

What was the test verdict on Cc1nn(Cc2ccccc2Cl)c(C)c1CN(C)CC(O)COc1ccc(Cl)cc1 (configuration not stated) ?
true

Please state the recorded outcome for this compound: CN1CC(=O)NC1=NC(=O)Nc1cccc(Cl)c1
true

Please state the recorded outcome for this compound: CN(C)c1ccccc1CN1CCCN(Cc2ccccc2N(C)C)C1c1ccncc1
true

Tell me the assay call for CN(C(Cc1ccc(OS(=O)(=O)c2cccc3cnccc23)cc1)C(=O)N1CCN(c2ccccc2)CC1)S(=O)(=O)c1cccc2cnccc12 (configuration not stated) please.
true

What outcome does the record of this test show for OC[C@H]1O[C@@H](Oc2ccc(O)cc2)[C@H](O)[C@@H](O)[C@H]1O ?
false

Identify the outcome logged in this assay for the compound shown: CC1=C[C@@H]2[C@@H]([C@@H](O)C[C@@]3(C)[C@H]2C[C@@H](C)[C@]3(O)C(=O)CO)[C@@]2(C)Cc3cnn(-c4ccccc4)c3C=C12
true

Kindly provide the recorded test outcome for the following compound: CCn1c(-c2nonc2N)nc2cncc(CNC3CCNCC3)c21
true

---

Test: qHTS of pediatric cancer cell lines to identify multiple opportunities for drug repurposing: Primary screen for A673 cells (AID 1347092); further: nearly all actives have a fitted effect of over 45% in size
Conditions: A673 Ewing sarcoma viability, CellTiter-Glo ATP luminescence, 48 h; series mostly up to 46 µM
Inconclusive results are not listed. Activity calls are given as the source filed them. The call rests on the fitted dose curve; in most records, active means well fitted cell-killing curve with a large enough effect; inconclusive means small, poorly fitted or top-dose-only effect; inactive means no such curve, though single readings can be large or run the other way.
Could you please pick one outcome from this set? active, inactive

Study these solved cases before continuing.
- compound: "CN1[C@H]2CC[C@H]1CC(OC(=O)c1c[nH]c3ccccc13)C2 (stereo not given in full)"
  classAssignment: "inactive"
- compound: "Cc1ccc(NC(=O)c2cccc(N(C)C)c2)cc1NC(=O)c1ccc(O)cc1"
  classAssignment: "active"
- compound: "CN(C)N=Nc1nc[nH]c1C(N)=O"
  classAssignment: "inactive"

Can you look up the reported call for CC(C)N(CCCNC(=O)Nc1ccc(C(C)(C)C)cc1)C[C@H]1O[C@@H](n2cc(Br)c3c(N)ncnc32)[C@H](O)[C@H]1O for me?
active

Please let me know the test result on file for CC(=O)OCC(=O)[C@@]1(O)CC[C@H]2[C@@H]3CCC4=CC(=O)C=C[C@]4(C)[C@@H]3[C@@H](O)C[C@@]21C .
inactive

Tell me the assay call for Clc1ccc(COC(Cn2ccnc2)c2ccc(Cl)cc2Cl)c(Cl)c1 (stereo not given) please.
active

I'd appreciate the recorded outcome for CC(C)CNc1ccnc(NCc2csc(-c3ccccc3)n2)n1 from this test.
active

Test call for this compound, please: Cc1nc(C(=O)NCC(=O)O)c(O)c2ccc(Oc3ccccc3)cc12
inactive

# lookup: test call for CCOC(=O)[C@H]1O[C@H]1C(=O)N[C@@H](CC(C)C)C(=O)NCCC(C)C
active

Lab log entry: CCCC1OC2C[C@@H]3[C@H]4CCC5=CC(=O)C=C[C@]5(C)[C@H]4C(O)C[C@]3(C)[C@]2(C(=O)CO)O1 (stereo not given in full) — outcome as called in the assay?
inactive

How did this test come out for N#CC(c1ccnc(NCCc2cccnc2)n1)c1nc2ccccc2s1 (stereo not given) ?
active

Recorded call for C[C@H]1[C@H](O)O[C@@H]2O[C@@]3(C)CC[C@@H]4[C@H](C)CC[C@@H]1[C@@]24OO3 ?
active

Per the records of this test, what outcome belongs to COc1cc2nc(-c3cc(F)ccc3O)nc(N[C@@H]3CNC[C@@H]3C(C)(C)O)c2cc1OC ?
active

Hi team, can someone confirm the assay call for CCCCC[C@H](O)C=C[C@H]1[C@H](O)CC(=O)[C@H]1CC=CCCCC(=O)O ?
inactive

Could you check what this test reported for CCN1C[C@H](C)n2c(c(O)c3c(=O)n(Cc4ccc(F)c(Cl)c4)nc(C(=O)NC)c32)C1=O ?
inactive

I would be grateful if you could indicate the recorded call for CN1CCN(c2ncc(-c3cc(Cl)cc(Cl)c3Cl)c(N)n2)CC1 .
active

Field: outcome | Entry: CN1CCc2c(n(Cc3ccc(C(=O)NO)cc3)c3ccccc23)C1
active

State the result this test recorded for Nc1nc(Cl)nc2c1ncn2[C@@H]1O[C@H](CO)[C@@H](O)[C@H]1F .
active

Record request — test call for CCOC(=O)c1c(CSc2ccccc2)n(C)c2cc(Br)c(O)c(CN(C)C)c12
inactive

Hi, sorry to bother you, what did the test record for C[C@@H]1CCO[C@H]2Cn3cc(C(=O)NCc4ccc(F)cc4F)c(=O)c(O)c3C(=O)N12 ?
inactive

From: PubChem BioAssay (NCATS)
